Taken from patent US11370785B2.

We begin with a simple list: items and their reported log10 of EC50.
Biological target: human FXR (Homo sapiens, UniProt Q96RI1)
Construct: expressed in transfected cells; host or cells: HEK293 cells stably carrying a 5xGal4-response-element firefly luciferase reporter, transiently transfected with the pcDNA3.1-Gal4-FXR plasmid
Sequence (Q96RI1 262-486 limits assumed): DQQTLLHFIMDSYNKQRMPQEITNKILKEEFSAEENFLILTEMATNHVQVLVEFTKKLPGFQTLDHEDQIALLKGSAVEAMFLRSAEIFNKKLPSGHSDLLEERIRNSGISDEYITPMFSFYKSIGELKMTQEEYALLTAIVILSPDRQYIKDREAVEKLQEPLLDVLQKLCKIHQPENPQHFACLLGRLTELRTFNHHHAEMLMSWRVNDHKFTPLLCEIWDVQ
Test: transient human FXR/Gal4-luciferase reporter assay
Type: cell-based
Settings: Gal4-hFXR reporter in HEK293 cells; relative to 8 μM GW-4064; read-out: FXR EC50
readout: log10 of EC50 (log10 of the value in nM)

> print(dat)
                                   compound        readout  numericresult
1  CC(C)Oc1cc(C(=O)O)nc2ccc(N3CCC4(CC3)CC(=Cc3c(-c5ccccc5OC(F)(F)F)noc3C3CC3)C4)cc12  log10 of EC50           0.30
2  CN(C)C(=O)c1cc(F)c2nc(N3CCC4(CC3)CC(=Cc3c(-c5c(Cl)cncc5Cl)noc3C(F)(F)F)C4)sc2c1  log10 of EC50           2.83
3  Cn1cc(C(=O)O)c2ccc(N3CCC4(CC3)CC(=Cc3c(-c5ccccc5C(F)(F)F)noc3C3CC3)C4)cc21  log10 of EC50           0.60
4  O=C(O)c1cccc(N2CCC3(CC2)CC(Nc2c(-c4c(Cl)cccc4Cl)noc2C2CC2)C3)n1  log10 of EC50           3.20
5  Clc1cccc(Cl)c1-c1noc(C2CC2)c1C=C1CC2(CCN(c3cccc(-c4nn[nH]n4)c3)CC2)C1  log10 of EC50           3.03
6  O=C(O)C1CCc2cc(N3CCC4(CC3)CC(=Cc3c(-c5ccccc5OC(F)(F)F)noc3C3CC3)C4)ccc2N1 (stereo not shown)  log10 of EC50           3.01
7  CCOc1cc(C(=O)O)ncc1N1CCC2(CC1)CC(=Cc1c(-c3ccccc3C(F)(F)F)noc1C1CC1)C2  log10 of EC50           2.65

###

Molecular target: human FXR (Homo sapiens)
Construct: expressed in transfected cells; host or cells: HEK293 cells stably carrying a 5xGal4-response-element firefly luciferase reporter, transiently transfected with the pcDNA3.1-Gal4-FXR plasmid
Experiment: transient human FXR/Gal4-luciferase reporter assay
Format: cell-based
Settings: Gal4-hFXR reporter in HEK293 cells; relative to 8 μM GW-4064; read-out: FXR EC50
pEC50: −log10 of the molar value.
We begin with a simple list: items and their reported pEC50.
readout: pEC50

> print(dat)
                                    compound  numericresult
 1  Cn1cc(C(=O)O)c2ccc(N3CCC4(CC3)CC(=Cc3c(-c5ccccc5OC(F)(F)F)noc3C3CC3)C4)cc21           7.68
 2  O=C(O)c1ccc(CN2CCC3(CC2)CC(=Cc2c(-c4c(Cl)cccc4Cl)noc2C2CC2)C3)cc1           5.36
 3  Cn1cc(C(=O)O)c2ccc(N3CCC4(CC3)CC(=Cc3c(-c5ccccc5OC(F)(F)F)noc3C3CC3)C4)nc21           6.64
 4  O=C(O)c1cc(OC(F)F)c2cc(N3CCC4(CC3)CC(=Cc3c(-c5ccccc5C(F)(F)F)noc3C3CC3)C4)ccc2n1           8.00
 5  O=C(O)c1ccc2nc(N3CCC4(CC3)CC(=Cc3c(-c5ccccc5C(F)(F)F)noc3C3CC3)C4)sc2n1           5.91
 6  O=C(c1cc(OC2CCC2)c2cc(N3CCC4(CC3)CC(Cc3c(-c5ccccc5C(F)(F)F)noc3C3CC3)C4)ccc2n1)N1CCC1           6.37
 7  Cc1cccc(Cl)c1-c1noc(C2CC2)c1C=C1CC2(CCN(c3ccc4nc(C(=O)O)cc(C(F)(F)F)c4c3)CC2)C1           8.00
 8  Cc1cccc(Cl)c1-c1noc(C2CC2)c1C=C1CC2(CCN(c3ccc4nc(C(=O)O)ccc4c3)CC2)C1           6.82
 9  COc1cc(C(=O)O)nc2ccc(N3CCC4(CC3)CC(=Cc3c(-c5c(Cl)cccc5Cl)noc3C(F)(F)F)C4)cc12           8.40
10  O=C(O)c1cc2ccc(N3CCC4(CC3)CC(Cc3c(-c5c(Cl)cccc5Cl)noc3C3CC3)C4)cc2nn1           6.69
11  COCc1onc(-c2c(Cl)cncc2Cl)c1C=C1CC2(CCN(c3ccc4nc(C(=O)O)cc(C(F)(F)F)c4c3)CC2)C1           7.48
12  Cc1cccc(Cl)c1-c1noc(C2CC2)c1C=C1CC2(CCN(S(=O)(=O)c3cccc(C(=O)O)c3)CC2)C1           6.18
13  CC(=O)Nc1ncc(S(=O)(=O)N2CCC3(CC2)CC(Cc2c(-c4c(Cl)cccc4Cl)noc2C2CC2)C3)s1           6.08
14  O=C(O)c1cc(OCCO)c2cc(N3CCC4(CC3)CC(Cc3c(-c5ccccc5C(F)(F)F)noc3C3CC3)C4)ccc2n1           6.33
15  O=C(O)c1cc(OCC(F)F)c2cc(N3CCC4(CC3)CC(Cc3c(-c5ccccc5C(F)(F)F)noc3C3CC3)C4)ccc2n1           8.22
16  O=C(O)c1ccc(N2CCC3(CC2)CC(=Cc2c(-c4c(Cl)cccc4Cl)cnn2C2CC2)C3)nc1           5.33
17  O=C(O)c1cc(C(F)(F)F)c2cc(N3CCC4(CC3)CC(=Cc3c(-c5c(Cl)cncc5Cl)noc3C3CC3)C4)ccc2n1           7.74
18  O=C(O)c1cc(F)c2nc(N3CCC4(CC3)CC(=Cc3c(-c5ccccc5C(F)(F)F)noc3C(F)(F)F)C4)sc2c1           6.19
19  COc1cc([N+](=O)[O-])ccc1S(=O)(=O)N1CCC2(CC1)CC(Cc1c(-c3c(Cl)cccc3Cl)noc1C1CC1)C2           5.82
20  CC(C)Oc1cc(C(=O)O)nc2ccc(N3CCC4(CC3)CC(=Cc3c(-c5c(Cl)cncc5Cl)noc3C3CC3)C4)cc12           8.52
21  O=C(O)c1cc(O[C@H]2CCOC2)c2cc(N3CCC4(CC3)CC(Cc3c(-c5ccccc5C(F)(F)F)noc3C3CC3)C4)ccc2n1           8.22
22  CC(C)Oc1cc(C(=O)O)nc2ccc(N3CCC4(CC3)CC(Cc3c(-c5ccccc5C(F)(F)F)noc3C3CC3)C4)cc12           7.72
23  O=C(O)c1cc(F)c2nc(N3CCC4(CC(=Cc5c(-c6c(Cl)cccc6Cl)noc5C5CC5)C4)C3)sc2c1 (stereo not drawn)           7.14
24  O=C(O)c1ccc(CCN2CCC3(CC2)CC(=Cc2c(-c4c(Cl)cccc4Cl)noc2C2CC2)C3)cc1           6.12
25  Cc1cc2cc(N3CCC4(CC3)CC(=Cc3c(-c5c(Cl)cccc5Cl)noc3C3CC3)C4)ccc2nc1C(=O)O           5.87
26  NC(=O)c1cc(OC2CCC2)c2cc(N3CCC4(CC3)CC(Cc3c(-c5ccccc5C(F)(F)F)noc3C3CC3)C4)ccc2n1           6.35
27  CN(C)C(=O)c1cc(C(F)(F)F)c2cc(N3CCC4(CC3)CC(Cc3c(-c5ccccc5C(F)(F)F)noc3C3CC3)C4)ccc2n1           6.81
